Here is a set of compounds with reported pIC50 for NAMPT (Homo sapiens), compiled from the literature.
Numbers only, as −log10 of the molar value.

// batch mode: one pIC50 value per listed entry
1. O=C(NCCCCC1CCN(C(=O)C2CCOCC2)CC1)Nc1ccc2nccn2c1
2. CC(C)C(=O)N1CCC(c2ccc(C(=O)NCc3cn4ccnc4cn3)cc2)CC1
3. O=C(NCc1ccn2ccnc2c1)c1ccc(C2CCN(C(=O)C3CC3)CC2)cc1
4. O=C(Nc1ccc(OC2CCN(CCC3CC3)CC2)cc1)C1CN(c2cccnc2)C1

Result:
9.57
8.54
9.60
9.28

For every item below, please supply its pIC50.
1. COCCC(=O)N(CC(=O)N1CCCCC1)c1ncc(C(=O)NCCCn2ccnc2)s1
2. O=C(CC1CCCC1)Nc1ccc(NC(=O)NCc2ccc3nccn3c2)cc1
3. Cc1ncccc1N1CC(C(=O)Nc2ccc(C3CCN(C(=O)c4cccc(F)c4)CC3)cc2)C1
4. CCC(=O)N1CCC(c2ccc(C(=O)NCc3ccn4ccnc4c3)cc2)CC1
5. O=C(NCc1ccn2ccnc2c1)c1ccc(C2CCN(C(=O)c3cncs3)C2)cc1 (stereo not drawn)
6. O=C(NCc1ccn2ccnc2c1)c1ccc(C2CN(C(=O)C3CCCC3)C2)cc1
7. CC(C)CC(=O)N(CCc1ccc(F)cc1)c1ncc(C(=O)NCCCn2ccnc2)s1

Result:
1. 9.27
2. 8.83
3. 7.00
4. 9.75
5. 8.96
6. 8.90
7. 9.69

---

pIC50: −log10 of the molar value.
Field: pIC50. System: NAMPT (Homo sapiens). Provenance: assorted publications.
Everything with pIC50 lower than 9 is not satisfied; everything else, including exactly 9, is satisfied.

Solved entries:
INSERT INTO assay_data (compound, label_value) VALUES
  ('O=C(NCc1ccn2ccnc2c1)c1ccc(C2CCN(C(=O)c3ccncc3)CC2)cc1', 'satisfied'),
  ('O=C(NCc1ccn2ccnc2c1)c1ccc(C2CCN(C(=O)C3CC3)C2)s1 (stereo not drawn)', 'satisfied');

Problem: Decide: is the reported value of pIC50 for "CC[C@H](C)C(=O)N1CC(c2ccc(C(=O)NCc3ccn4ccnc4c3)cc2)C1" equal to or greater than 9?
Result: satisfied

Problem: hey, is pIC50 for this one >= 9? "O=C(NCc1ccn2ccnc2c1)Nc1ccc(O[C@@H]2CCN(C(=O)CC3CC3)C2)cc1"
Result: satisfied

Problem: Given COCC(C)C(=O)Nc1ccc(NC(=O)Nc2ccc3nccn3c2)cc1 (stereo not drawn) , state whether its pIC50 is at least 9.
Result: satisfied

Problem: Threshold query (pIC50 >= 9) on O=C(NCc1ccn2ccnc2c1)c1ccc(C2CCN(C(=O)c3ccccc3)C2)s1 (stereo not drawn)
Result: satisfied

Problem: Has "Nc1ccccc1C(=O)N1CCC(CCCCNC(=O)/C=C/c2cccnc2)CC1" a recorded pIC50 greater than or equal to 9?
Result: not satisfied

Problem: Is the recorded value of pIC50 equal to or greater than 9 for this compound? "CCN(CC)CCCNC(=O)N(Cc1ccc(C#N)cc1)c1ncc(C(=O)NCCCn2ccnc2)s1"
Result: not satisfied

Problem: State whether the measured pIC50 reaches 9, counting equality as reaching it, for "COCCC(=O)N(Cc1ccc(C)nc1)c1ncc(C(=O)NCCCn2ccnc2)s1"
Result: not satisfied

Problem: Is pIC50 at least 9? Consider "C[C@@H]1COC(=O)N1c1ncc(C(=O)NCc2ccn3ccnc3c2)s1"
Result: satisfied

Problem: Tell me whether pIC50 is at least 9 here: "O=C(NCc1ccn2ccnc2c1)Nc1ccc(OC2CN(C(=O)C3CCOCC3)C2)cc1"
Result: satisfied

---

Note to self: these compounds have IC50 reported for NAMPT (Homo sapiens, UniProt P43490) in various publications.
Answers are plain numbers, in nM.

Use these answered entries as a reference point.
INSERT INTO results (compound, readout_number) VALUES
  ('O=C(NCc1ccc2nccn2c1)c1cnc(N2CC(c3ccccc3)OC2=O)s1 (stereo not shown)', 4.76),
  ('O=C(NCc1ccn2ccnc2c1)Nc1ccc(OC2CCN(C(=O)c3ccc(F)c(F)c3)CC2)cc1', 0.765),
  ('O=C(Nc1ccc(C2CCN(C(=O)CC3CCCO3)CC2)cc1)Nc1ccc2nccn2c1 (stereo not shown)', 0.209),
  ('CC(C)OCC(=O)Nc1ccc(NC(=O)NCc2ccc3nccn3c2)cc1', 0.468),
  ('CCC(C)(C)C(=O)N1CCC(c2ccc(C(=O)NCc3ccn4ccnc4c3)cc2)C1 (stereo not shown)', 0.804);

Dear reader, for each entry below, please note its IC50.
1. CC(C)CC(=O)N1CCC(c2ccc(NC(=O)C3CN(c4cccnn4)C3)cc2)CC1
2. CC(C)OC(=O)N1CCC(c2ccc(C(=O)NCc3ccn4ccnc4c3)s2)CC1
3. COc1cccc(C(=O)N2CCC(c3ccc(C(=O)NCc4ccn5ccnc5c4)s3)C2)c1 (stereo not shown)
4. Cn1cc(C(=O)N2CCC(c3ccc(C(=O)NCc4ccn5ccnc5c4)s3)C2)cn1 (stereo not shown)
5. C[Si]1(C)CN(C(=O)CCCCCNC(=O)CCc2cccnc2)c2ccccc21
6. O=C(/C=C/c1cccnc1)NCCCCCCn1ccc2ccncc21

Result:
1: 0.611; 2: 0.751; 3: 0.799; 4: 0.538; 5: 1590; 6: 230

---

# IC50 against NAMPT (Homo sapiens, UniProt P43490), merged from multiple literature sources
# Sequence (P43490 whole entry): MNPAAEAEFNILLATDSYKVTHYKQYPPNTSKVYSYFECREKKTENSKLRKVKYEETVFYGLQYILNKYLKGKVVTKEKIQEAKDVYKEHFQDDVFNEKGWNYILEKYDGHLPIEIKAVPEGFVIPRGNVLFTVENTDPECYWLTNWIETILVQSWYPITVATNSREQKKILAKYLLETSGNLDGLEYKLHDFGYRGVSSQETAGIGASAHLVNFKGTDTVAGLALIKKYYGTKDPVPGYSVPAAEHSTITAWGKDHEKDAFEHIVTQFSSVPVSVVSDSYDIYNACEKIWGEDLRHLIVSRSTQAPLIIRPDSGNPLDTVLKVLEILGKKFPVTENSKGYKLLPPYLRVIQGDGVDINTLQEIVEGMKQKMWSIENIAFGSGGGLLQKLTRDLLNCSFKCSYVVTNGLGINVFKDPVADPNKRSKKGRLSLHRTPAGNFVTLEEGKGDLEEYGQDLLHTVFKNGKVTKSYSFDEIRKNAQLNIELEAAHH
Give bare numbers, in nM.

INSERT INTO results (molecule, measured_target, readout_number) VALUES
  ('C=CCC(=O)N1CCC(c2ccc(NC(=O)C3CN(c4cccnn4)C3)cc2)CC1', 'NAMPT (Homo sapiens, UniProt P43490)', 0.887),
  ('CC(C)OCC(=O)Nc1ccc(C(=O)NCc2ccc3nccn3c2)cc1', 'NAMPT (Homo sapiens, UniProt P43490)', 6.42),
  ('O=C(/C=C/c1cccnc1)NCCCCCCn1ccc2cc(I)ccc21', 'NAMPT (Homo sapiens, UniProt P43490)', 155),
  ('N#Cc1ccc(CN(C(=O)NCCCC(=O)O)c2ncc(C(=O)NCCCn3ccnc3)s2)cc1', 'NAMPT (Homo sapiens, UniProt P43490)', 153),
  ('CC(C)(C)OC(=O)N1CCC(c2ccc(C(=O)Nc3ccc4ncc(Cl)n4c3)cc2)CC1', 'NAMPT (Homo sapiens, UniProt P43490)', 1.9);

For each of the molecules below, state IC50.
1. CC(C)(C)C(=O)N1CCC(c2ccc(C(=O)NCc3ccn4ccnc4c3)cc2)CC1
2. CN(C)CC(=O)N(Cc1ccc(F)cc1)c1ncc(C(=O)NCCCn2ccnc2)s1
3. O=C(Nc1ccc(C2CCN(C(=O)Cc3ccc(Cl)c(Cl)c3)CC2)cc1)C1CN(c2cccnn2)C1
4. COCCC(=O)N(Cc1cnn(C)c1)c1ncc(C(=O)NCCCn2ccnc2)s1
5. N#Cc1cccc(C(=O)N2CCC(c3ccc(NC(=O)C4CN(c5cccnn5)C4)cc3)CC2)c1
6. CC(C)OCC(=O)N1CCC(CCCCNC(=O)Nc2ccc3nccn3c2)CC1
7. CCCCC(=O)N1CCC(Oc2ccc(NC(=O)C3CN(c4cccnc4)C3)cc2)CC1

Result:
[0.384, 1.21, 0.973, 5.87, 0.615, 0.456, 0.886]

Below are 2 molecules. Give each one its IC50.
1. O=C(NCc1ccn2ccnc2c1)c1ccc(C2=CCN(S(=O)(=O)c3ccccc3)CC2)o1
2. O=C(NCc1ccc2nccn2c1)c1cnc(N2C(=O)OCC2C2CCOC2)s1 (stereo not drawn)

Result:
1. 1
2. 0.69

---

Here we gather pIC50 data for NAMPT (Homo sapiens, UniProt P43490) reported by several publications.
Answers are plain numbers, as −log10 of the molar value.

// worked examples, pIC50 included
INSERT INTO measurements (compound, readout_number) VALUES
  ('O=C(NCc1ccc2nccn2c1)c1cnc(N(C[C@@H]2CCCO2)C(=O)C2CCOCC2)s1', 8.46),
  ('O=C(NCc1ccn2ccnc2c1)Nc1ccc(C2CCN(C(=O)CN3CCOCC3)CC2)cc1', 9.26),
  ('O=C(NCc1ccn2ccnc2c1)c1ccc(C2CN(C(=O)c3ccccc3Cl)C2)cc1', 9.26),
  ('CC(C)CCC(=O)N1CCC(Oc2ccc(NC(=O)C3CN(c4cccnc4)C3)cc2)CC1', 9.01),
  ('CC(C)OCC(=O)Nc1ccc(C(=O)NCc2ccn3ccnc3c2)cc1', 9.34);

Here are 7 compounds. What values of pIC50 were reported for them?
1. O=C(NCc1ccn2ccnc2c1)c1ccc(-c2cnn(C[C@H]3CCCO3)c2)s1
2. O=C(Nc1ccc(OC2CCN(C(=O)c3cccc(C(F)(F)F)c3)CC2)cc1)C1CN(c2ccnnc2)C1
3. O=C(NCc1ccc2nccn2c1)c1cnc(N2CCc3ccccc3CC2)s1
4. Cc1noc(C)c1C(=O)N1CCC(c2ccc(C(=O)NCc3ccn4ccnc4c3)s2)C1 (stereo not shown)
5. O=C(Nc1ccc(C2CCN(C(=O)Cc3ccc(F)cc3)CC2)cc1)C1CN(c2cccnn2)C1
6. O=C(Nc1ccc(NC(=O)C2COCCO2)cc1)Nc1ccc2nccn2c1 (stereo not shown)
7. COCCOCC(=O)N1CCC(c2ccc(NC(=O)C3CN(c4cccnn4)C3)cc2)CC1

Result:
[9.71, 7.06, 8.85, 9.17, 9.20, 9.09, 8.99]

Provide each entry's pIC50 from the list below.
1. CC(C)(C)OC(=O)N1CCC(Oc2ccc(C(=O)N[C@H]3CCN(c4cccnc4)C3)cc2)CC1
2. O=C(NCc1ccc2nccn2c1)c1cnc(N2CCc3ccccc3C2)s1
3. O=C(Nc1ccc(OC2CCN(C(=O)CC3CCOCC3)CC2)cc1)C1CN(c2cccnc2C(F)(F)F)C1
4. O=C(NCCCn1ccnc1)c1cnc(N(Cc2ccc(F)cc2)C(=O)CC2CCCCC2)s1
5. O=C(Nc1ccc(OC2CCN(C(=O)c3ccc(F)c(F)c3)CC2)cc1)C1CN(c2ccnnc2)C1
6. O=C(CC1CCCC1)Nc1ccc(NC(=O)Nc2ccc3nccn3c2)cc1
7. O=C(NCc1ccn2ccnc2c1)c1ccc(C2CCN(C(=O)c3ccncc3)C2)s1 (stereo not shown)
8. O=C(NCc1ccn2ccnc2c1)c1ccc(C2CCN(C(=O)c3cccs3)CC2)cc1

Result:
1: 7.95; 2: 8.98; 3: 7.72; 4: 9.34; 5: 7.19; 6: 9.55; 7: 9.11; 8: 9.56
